System: Mus musculus
Measurement Protocol: Toxicity in ip dosed C3H X DBA2 F1 hybrid mouse […] with mouse L1210 cells on day 0 and dosed once daily on days 1 to 5 measured after 50 days
Assay type: organism-based
Cond: in vivo, 1200 h
Property Measured: LD10 (mg/kg)
Reply with just the number (in mg/kg).

Exercise: GET /values?readout=LD10&item= CC[n+]1cccc2cc(NC(=O)c3ccc(C(=O)Nc4ccc5c(ccc[n+]5CC)c4)nc3)ccc21.Cc1ccc(S(=O)(=O)[O-])cc1.Cc1ccc(S(=O)(=O)[O-])cc1
Key: 6

Exercise: GET /values?readout=LD10&item= CC[n+]1cccc(C(=O)Nc2ccc(NC(=O)c3ccc(C(=O)Nc4ccc5c(ccc[n+]5CC)c4)cc3)cc2)c1.Cc1ccc(S(=O)(=O)[O-])cc1.Cc1ccc(S(=O)(=O)[O-])cc1
Key: 6

Exercise: GET /values?readout=LD10&item= C[n+]1cccc(NC(=O)c2ccc(NC(=O)c3ccc(C(=O)Nc4ccc(C(=O)Nc5ccc[n+](C)c5)cc4)cc3)cc2)c1.[I-].[I-]
Key: 17

Exercise: GET /values?readout=LD10&item= C[n+]1ccc(Nc2ccc(NC(=O)c3ccc(Nc4cc[n+](C)c5ccc(N)cc45)cc3)cc2)cc1.[Br-].[Br-]
Key: 12

Exercise: GET /values?readout=LD10&item= C[n+]1ccc(Nc2ccc(NC(=O)/C=C/c3ccc(Nc4cc[n+](C)c5ccc(N)cc45)cc3)cc2)cc1.Cc1ccc(S(=O)(=O)[O-])cc1.Cc1ccc(S(=O)(=O)[O-])cc1
Key: 40

# input for lookup
Exercise: GET /values?readout=LD10&item= CCC[n+]1ccc(Nc2ccc(NC(=O)c3ccc(Nc4cc[n+](CCC)c5ccc(N)cc45)cc3N)cc2)cc1.[I-].[I-]
Key: 20

====

Catalogue of C50 readings, one per entry.
Measurement Protocol: Displacement of ethidium from poly[d(G-C)]-poly[d(G-C)] DNA (unknown origin) by fluorimetric method
Reply with just the number (in µM).

Exercise: GET /values?readout=C50&item= C[n+]1cccc(NC(=O)c2ccc(NC(=O)c3ccc(C(=O)Nc4ccc(NC(=N)NC(=N)N)cc4)cc3)cc2)c1.I.[I-]
Key: 1.71

Next:
Exercise: GET /values?readout=C50&item= Cc1c[n+](C)c2ccccc2c1Nc1ccc(C(=O)Nc2ccc(Nc3cc[n+](C)cc3)cc2)cc1.[Br-].[Br-]
Key: 15

Exercise: GET /values?readout=C50&item= C[n+]1ccc(-c2ccc(NC(=O)c3ccc(Nc4cc[n+](C)c5ccccc45)cc3)cc2)cc1.Cc1ccc(S(=O)(=O)[O-])cc1.Cc1ccc(S(=O)(=O)[O-])cc1
Key: 3

Exercise: GET /values?readout=C50&item= C/C(=C(/C)c1ccc(Nc2cc[n+](C)c3ccc(N)cc23)cc1)c1ccc(Nc2cc[n+](C)cc2)cc1.[Cl-].[Cl-]
Key: 2.6

Exercise: GET /values?readout=C50&item= C/C(=N\NC(=N)N)c1ccc(NC(=O)c2ccc(Nc3cc[n+](C)c4cc([N+](=O)[O-])ccc34)cc2)cc1.Cl.[Cl-]
Key: 0.74

Exercise: GET /values?readout=C50&item= Cc1cc(Nc2ccc(NC(=O)c3ccc(C(=O)Nc4ccc(C(=O)Nc5ccc[n+](C)c5)cc4)cc3)cc2)nc(N)[n+]1C.[I-].[I-]
Key: 0.49

Exercise: GET /values?readout=C50&item= CC[n+]1ccc(Nc2ccc(NC(=O)c3ccc(Nc4cc[n+](CC)c5cc(N)ccc45)cc3N)cc2)cc1.[Br-].[Br-]
Key: 1.11

====

Measurement Protocol: Lipophilic-hydrophilic balance, Rm of the compound by partition chromatography
Assay type: physicochemical
Catalogue of Rm readings, one per entry.
# answer = number (no unit)

Exercise: GET /values?readout=Rm&item= CCCC[n+]1cccc2cc(NC(=O)COc3ccc(C(=O)Nc4ccc5c(ccc[n+]5CCCC)c4)cc3)ccc21.Cc1ccc(S(=O)(=O)[O-])cc1.Cc1ccc(S(=O)(=O)[O-])cc1
Key: 0.41

Exercise: GET /values?readout=Rm&item= CC[n+]1ccc(Nc2ccc(C(=O)Nc3ccc(/C(C)=N/NC(=N)N)cc3)c(N)c2)c2cc(N)ccc21.Cc1ccc(S(=O)(=O)O)cc1.Cc1ccc(S(=O)(=O)[O-])cc1
Key: -0.2

Exercise: GET /values?readout=Rm&item= C[n+]1cccc(NC(=O)c2ccc(NC(=O)c3ccc(C(=O)Nc4ccc(C(=O)Nc5ccc[n+](C)c5)c(N)c4)cc3)cc2N)c1.Cc1ccc(S(=O)(=O)[O-])cc1.Cc1ccc(S(=O)(=O)[O-])cc1
Key: -0.75

Exercise: GET /values?readout=Rm&item= C[n+]1cc(-c2ccc(NC(=O)c3ccc(Nc4cc[n+](C)c5ccccc45)cc3)cc2)c(N)nc1N.Cc1ccc(S(=O)(=O)[O-])cc1.Cc1ccc(S(=O)(=O)[O-])cc1
Key: -0.01

Exercise: GET /values?readout=Rm&item= CC[n+]1cccc2cc(NC(=O)c3ccc(-c4ccc(-c5ccc(-c6ccc(C(=O)Nc7ccc8c(ccc[n+]8CC)c7)cc6)cc5)cc4)cc3)ccc21.Cc1ccc(S(=O)(=O)[O-])cc1.Cc1ccc(S(=O)(=O)[O-])cc1
Key: -0.1

Exercise: GET /values?readout=Rm&item= CCC[n+]1ccc(Nc2ccc(NC(=O)c3ccc(Nc4cc[n+](CCC)c5ccc(N)cc45)cc3N)cc2)cc1.[I-].[I-]
Key: 0.52

Exercise: GET /values?readout=Rm&item= CC[n+]1ccc(Nc2ccc(C(=O)Nc3ccc(Nc4cc[n+](CC)c5ccccc45)cc3)cc2)cc1.[Br-].[Br-]
Key: 0.45

# input for lookup
Exercise: GET /values?readout=Rm&item= C[n+]1ccc(Nc2ccc(C(=O)Nc3ccc(Nc4cc[n+](C)c5ccc(N)cc45)cc3)cc2)cc1.Cc1ccc(S(=O)(=O)[O-])cc1.Cc1ccc(S(=O)(=O)[O-])cc1
Key: 0.05

====

System: L1210
Measurement Protocol: Antitumor activity against mouse L1210 cells […] in ip dosed C3H X DBA2 F1 hybrid mouse on day 0 and dosed once daily on days 1 to 5 assessed as increase in life span relative to control
Format: functional
Catalogue of D40 readings, one per entry.
Reply with just the number (in mg/kg).

See these solved cases before continuing.
Exercise: GET /values?readout=D40&item= CC[n+]1cccc(-c2ccc(NC(=O)c3ccc(C(=O)Nc4ccc(-c5ccc(-c6ccc(-c7ccc[n+](CC)c7)cc6)cc5)cc4)cc3)cc2)c1.Cc1ccc(S(=O)(=O)[O-])cc1.Cc1ccc(S(=O)(=O)[O-])cc1
Key: 5.6

Exercise: GET /values?readout=D40&item= C[n+]1cccc(-c2ccc(NC(=O)c3ccc(C(=O)Nc4ccc(-c5ccc(-c6ccc(-c7ccc[n+](C)c7)cc6)cc5)cc4)cc3)cc2)c1.Cc1ccc(S(=O)(=O)[O-])cc1.Cc1ccc(S(=O)(=O)[O-])cc1
Key: 17.9

Next:
Exercise: GET /values?readout=D40&item= Br.C/C(=N\NC(=N)N)c1ccc(NC(=O)c2ccc(Nc3cc[n+](C)c4ccc(N)cc34)cc2)cc1.[Br-]
Key: 2.1

====

Catalogue of C50 readings, one per entry.
Species on record: Bos taurus
Measurement Protocol: Displacement of ethidium from calf thymus DNA by fluorimetric method
Answer as a quantity: numeral, then unit.

Exercise: GET /values?readout=C50&item= CC[n+]1cccc(NC(=O)c2ccc(NC(=O)c3ccc(NC(=O)c4ccc(C(=O)Nc5ccc[n+](CC)c5)cc4)cc3)cc2)c1.Cc1ccc(S(=O)(=O)[O-])cc1.Cc1ccc(S(=O)(=O)[O-])cc1
Key: 0.5 µM

Exercise: GET /values?readout=C50&item= C[n+]1ccc(Nc2ccc(NC(=O)/C=C/c3ccc(C(=O)Nc4ccc(Nc5cc[n+](C)cc5)cc4)cc3)cc2)cc1.Cc1ccc(S(=O)(=O)[O-])cc1.Cc1ccc(S(=O)(=O)[O-])cc1
Key: 0.43 µM

Exercise: GET /values?readout=C50&item= Cc1c(C(=O)Nc2ccc(C(=O)Nc3ccc[n+](C)c3)cc2)ccc(C(=O)Nc2ccc(C(=O)Nc3ccc[n+](C)c3)cc2)c1C.Cc1ccc(S(=O)(=O)[O-])cc1.Cc1ccc(S(=O)(=O)[O-])cc1
Key: 6.9 µM

Exercise: GET /values?readout=C50&item= CC[n+]1cc(-c2ccc(NC(=O)c3ccc(C(=O)Nc4ccc(-c5c[n+](CC)c(N)nc5N)cc4)cc3)cc2)c(N)nc1N.Cc1ccc(S(=O)(=O)[O-])cc1.Cc1ccc(S(=O)(=O)[O-])cc1
Key: 0.84 µM

Exercise: GET /values?readout=C50&item= C[n+]1cccc(NC(=O)c2ccc(C(=O)Nc3ccc[n+](C)c3)cc2)c1.Cc1ccc(S(=O)(=O)[O-])cc1.Cc1ccc(S(=O)(=O)[O-])cc1
Key: 61 µM

Exercise: GET /values?readout=C50&item= C[n+]1cccc(NC(=O)c2ccc(NC(=O)c3ccc(C(=O)Nc4ccc(N/N=N/c5ccc(C(=N)N)cc5)cc4)cc3)cc2)c1.Cc1ccc(S(=O)(=O)O)cc1.Cc1ccc(S(=O)(=O)[O-])cc1
Key: 0.48 µM

Exercise: GET /values?readout=C50&item= C[n+]1ccc(Nc2ccc(C(=O)Nc3ccc(Nc4cc[n+](C)c5ccc(N)cc45)cc3)cc2)cc1.Cc1ccc(S(=O)(=O)[O-])cc1.Cc1ccc(S(=O)(=O)[O-])cc1
Key: 0.6 µM

Exercise: GET /values?readout=C50&item= C[n+]1ccc(Nc2ccc(NC(=O)c3ccc(/C=C/C4=NCCCN4)cc3)cc2)c2cc(N)ccc21.Cc1ccc(S(=O)(=O)O)cc1.Cc1ccc(S(=O)(=O)[O-])cc1
Key: 0.65 µM

Exercise: GET /values?readout=C50&item= Cc1cc(C(=O)Nc2ccc(C(=O)Nc3ccc[n+](C)c3)cc2)c(C)cc1C(=O)Nc1ccc(C(=O)Nc2ccc[n+](C)c2)cc1.Cc1ccc(S(=O)(=O)[O-])cc1.Cc1ccc(S(=O)(=O)[O-])cc1
Key: 7.8 µM

Exercise: GET /values?readout=C50&item= C[n+]1cccc(NC(=O)c2ccc(NC(=O)c3ccc(C(=O)Nc4ccc(C(=O)Nc5ccc[n+](C)c5)cc4)c4ccccc34)cc2)c1.Cc1ccc(S(=O)(=O)[O-])cc1.Cc1ccc(S(=O)(=O)[O-])cc1
Key: 1.5 µM

Values were extracted from ChEMBL document CHEMBL3228010.
